Provenance of the data: patent US10183937B2

- System: rat hepatocytes
- assay_details: In vitro metabolic stability in rat hepatocytes
- Type: in vitro ADME, Han Wistar rats
- condition_set: 1 μM, maximal oral bioavailability calculated from half-life
- Procedure: Determination of In Vitro Metabolic Stability in Rat Hepatocytes (Including Calculation of Hepatic In Vivo Blood Clearance (CL)) Hepatocytes from Han Wistar rats were isolated via a 2-step perfusion method. […] Cell viability was determined by trypan blue exclusion. […] Samples were frozen at −20° C. overnight, subsequently centrifuged for 15 minutes at 3000 rpm and the supernatant was analyzed with an Agilent 1200 HPLC-system with LCMS/MS detection. […]
measure: Rat hepatocyte Fmax (%)

Cc1cnc(-c2cc(OC(C)C(C)O)cc(C(=O)N[C@H](C)c3cnc(C(F)(F)F)nc3)c2)s1 (single isomer, unassigned) [Example 340] = 64
Cc1cnc(-c2cc(O[C@@H]3CCOC3)cc(C(=O)N[C@H](C)c3cnc(C(F)(F)F)nc3)c2)s1 [Example 11] = 52
Cc1cnc(-c2cc(OC(C)C(C)O)cc(C(=O)N[C@H](C)c3ccc(C(F)(F)F)nn3)c2)s1 (single isomer, unassigned) [Example 183] = 43
Cc1cnc(-c2cc(O[C@H]3CCOC3)cc(C(=O)N[C@H](C)c3cnc(C(F)(F)F)nc3)c2)s1 [Example 26] = 56
